Reported values of SPOT intensity for individual entries
Molecular target: T1, Cdc25, P04821
T1 sequence (P04821 50-136, looked up): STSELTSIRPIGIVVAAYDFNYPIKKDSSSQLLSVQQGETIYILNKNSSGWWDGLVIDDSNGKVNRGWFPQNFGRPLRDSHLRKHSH
Experiment: SPOT array
Settings: median of control spots 969

These solved cases illustrate the format of a correct answer.
| BINDER | MEASURED_VALUE |
| --- | --- |
| VNIPSPSSSPPPIPK | 0 |
| MTKTPETSPPKRPMG | 2 |
| SGVRLPAPPPPPRRG | 0 |

Next binder, please.
*Q* Requested field: SPOT intensity. Item: `LLRRTIPKRPFYHVL`
*A* 44
